B1: PPP2R2B (parent)
chain: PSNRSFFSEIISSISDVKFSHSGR

variants of: B1; assay: protein stability index of a GFP-peptide fusion (GPS, HEK-293T) (PSI 1-6); higher = more stable; conditions: c terminus: a fixed tail appended;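 further: lentivirally expressed fusions sorted by FACS into six bins by GFP to DsRed ratio, PSI derived from sequencing read proportions per bin multiplied by bin number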
Okay, here is how we bin by protein stability index: Low (below 2), Medium (2 to below 3), High (3 or more)

Examples with answers:
R24D    High
F7H    High
R4H    Medium
I10K    High
S22F    Medium
S2H    Medium

Query: Each variant maps to one class by protein stability index. Which class for F19G ?
Reply: Medium

Query: Each variant maps to one class by protein stability index. Which class for D16F ?
Reply: Low

Query: Each variant maps to one class by protein stability index. Which class for S20T ?
Reply: Medium

Query: Each variant maps to one class by protein stability index. Which class for H21K ?
Reply: Medium

Query: Each variant maps to one class by protein stability index. Which class for H21M ?
Reply: Medium

Query: Each variant maps to one class by protein stability index. Which class for N3I ?
Reply: Low
